Data credit: patent US20110098352A1

Collected pIC50 values appear next to each entry.
Target chain: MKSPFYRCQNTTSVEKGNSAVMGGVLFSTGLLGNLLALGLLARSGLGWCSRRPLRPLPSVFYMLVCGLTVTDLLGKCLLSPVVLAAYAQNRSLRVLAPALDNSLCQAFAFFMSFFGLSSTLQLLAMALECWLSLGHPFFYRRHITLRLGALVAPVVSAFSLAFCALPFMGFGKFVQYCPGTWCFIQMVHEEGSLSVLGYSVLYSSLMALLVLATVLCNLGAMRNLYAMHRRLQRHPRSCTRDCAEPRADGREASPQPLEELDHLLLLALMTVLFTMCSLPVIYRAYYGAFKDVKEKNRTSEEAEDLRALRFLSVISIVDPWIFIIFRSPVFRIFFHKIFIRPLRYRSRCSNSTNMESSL
pIC50: −log10 of the molar value.

The following molecules have reported results that may help.
>  <MOLECULE>
CCN(Cc1cc(C(F)(F)F)ccc1-c1cc(CC(=O)O)ccc1OC)C(=O)N[C@@H](C)c1ccc(Cl)cc1

>  <PARAMETER_MEASURED>
pIC50

>  <ENDPOINT_VALUE>
< 6.00

$$$$
>  <MOLECULE>
CCN(Cc1cc(C(F)(F)F)ccc1-c1cc(CC(=O)O)ccc1OC)C(=O)NCc1cc(F)cc(F)c1

>  <PARAMETER_MEASURED>
pIC50

>  <ENDPOINT_VALUE>
< 6.00

$$$$
>  <MOLECULE>
CCN(Cc1cc(C(F)(F)F)ccc1-c1cc(CC(=O)O)ccc1OC)C(=O)NCc1cccc(Cl)c1

>  <PARAMETER_MEASURED>
pIC50

>  <ENDPOINT_VALUE>
< 6.00

$$$$
>  <MOLECULE>
CCN(Cc1cc(C(F)(F)F)ccc1-c1cc(CC(=O)O)ccc1OC)C(=O)NCc1ccc(F)cc1

>  <PARAMETER_MEASURED>
pIC50

>  <ENDPOINT_VALUE>
< 6.00

$$$$
>  <MOLECULE>
CCN(Cc1cc(C(F)(F)F)ccc1-c1cc(CC(=O)O)ccc1OC)C(=O)OCc1cc(F)cc(F)c1

>  <PARAMETER_MEASURED>
pIC50

>  <ENDPOINT_VALUE>
< 6.00

$$$$
>  <MOLECULE>
CCN(Cc1cc(C(F)(F)F)ccc1-c1cc(CC(=O)O)ccc1OC)C(=O)N[C@H](C)c1ccc(Cl)cc1

>  <PARAMETER_MEASURED>
pIC50

>  <ENDPOINT_VALUE>
< 6.00

$$$$
>  <MOLECULE>
COc1ccc(CC(=O)O)cc1-c1ccc(C(=O)O)cc1CN(CC(F)(F)F)C(C)=O

>  <PARAMETER_MEASURED>
pIC50

>  <ENDPOINT_VALUE>
< 6.00

$$$$
>  <MOLECULE>
COc1ccc(CC(=O)O)cc1-c1ccc(C(F)(F)F)cc1CN(C)C(C)=O

>  <PARAMETER_MEASURED>
pIC50

>  <ENDPOINT_VALUE>
< 6.00

$$$$

Query: Name the recorded pIC50 for CCN(Cc1cc(C(F)(F)F)ccc1-c1cccc(CC(=O)O)c1)C(=O)OCc1ccccc1 .
Response: 6.00 to 6.52

Query: // lookup pIC50 for COc1ccc(CC(=O)O)cc1-c1ccc(C(F)(F)F)cc1CN(C)C(=O)OCc1ccccc1
Response: < 6.00
